System: primary IMCD cells
Assay: F-actin stress fiber staining (phalloidin)
Assay type: cell-based, rat
Conditions: compound 20 µM, 1 h
endpoint label: effect on actin stress fibers

{"smiles structure": "NC(=O)Cc1ccc(Nc2ncc(F)c(Nc3ccc(C(=O)Nc4ccccc4Cl)cc3)n2)cc1", "endpoint label": "effect on actin stress fibers", "result": "Comparable effects"}
{"smiles structure": "O=C(Cc1ccc(Nc2ncc(F)c(Nc3ccc(C(=O)Nc4ccccc4Cl)cc3)n2)cc1)NCCN1CCOCC1", "endpoint label": "effect on actin stress fibers", "result": "Comparable effects"}

----------
Each entry below carries its reported ΔTm at 10 µM.
Molecular target: AKT3 (Homo sapiens)
Construct: purchased in-house thermal shift (DSF) kinase panel (SGC Frankfurt); Promega NanoBRET for AURKA/B/C
Sequence (Q9Y243 148-479): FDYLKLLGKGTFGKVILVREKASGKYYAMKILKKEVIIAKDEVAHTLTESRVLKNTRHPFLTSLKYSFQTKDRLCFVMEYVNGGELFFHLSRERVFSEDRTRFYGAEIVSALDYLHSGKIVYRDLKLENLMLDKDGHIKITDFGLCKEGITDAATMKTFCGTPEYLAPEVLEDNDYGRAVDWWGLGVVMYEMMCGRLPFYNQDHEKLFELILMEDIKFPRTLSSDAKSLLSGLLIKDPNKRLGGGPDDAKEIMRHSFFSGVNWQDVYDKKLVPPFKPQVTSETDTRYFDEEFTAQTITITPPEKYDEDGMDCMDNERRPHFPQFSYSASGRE
Assay: Thermal shift assay
Format: binding
Settings: compound 10 µM; n = 3; read-out: ΔTm AKT3
# unit: °C | format: bare number

{"compound": "CCN1CCN(C(=O)Cc2ccc(Nc3ncc(F)c(Nc4ccc(C(=O)Nc5ccccc5)cc4)n3)cc2)CC1 [ERJ2-11]", "ΔTm at 10 µM [°C]": 0.1}
{"compound": "NC(=O)Cc1ccc(Nc2ncc(F)c(Nc3ccc(C(=O)Nc4ccccc4Cl)cc3)n2)cc1 [ERJ2-06]", "ΔTm at 10 µM [°C]": 0.1}
{"compound": "O=C(Cc1ccc(Nc2ncc(F)c(Nc3ccc(C(=O)Nc4ccccc4Cl)cc3)n2)cc1)NCCN1CCOCC1 [ERJ2-04]", "ΔTm at 10 µM [°C]": -0.1}

Pending compound:
Looking for the measured ΔTm at 10 µM of CCN1CCN(C(=O)Cc2ccc(Nc3ncc(F)c(Nc4ccc(C(=O)O)cc4)n3)cc2)CC1 [ERJ2-12] , can you help? -0.1

----------
Biological target: STK38L (Homo sapiens, UniProt Q9Y2H1)
Construct: purchased in-house thermal shift (DSF) kinase panel (SGC Frankfurt); Promega NanoBRET for AURKA/B/C
Sequence (Q9Y2H1 90-453): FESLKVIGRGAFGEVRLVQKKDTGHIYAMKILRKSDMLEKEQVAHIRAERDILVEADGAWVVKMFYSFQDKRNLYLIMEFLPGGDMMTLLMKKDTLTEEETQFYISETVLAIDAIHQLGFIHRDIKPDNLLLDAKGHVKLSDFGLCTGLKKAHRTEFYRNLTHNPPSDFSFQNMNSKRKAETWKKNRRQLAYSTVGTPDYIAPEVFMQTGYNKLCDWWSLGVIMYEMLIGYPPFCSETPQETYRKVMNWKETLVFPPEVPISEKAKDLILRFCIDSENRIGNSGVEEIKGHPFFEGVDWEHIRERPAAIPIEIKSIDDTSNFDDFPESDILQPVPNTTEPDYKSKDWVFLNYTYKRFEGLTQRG
Test: Thermal shift assay
Format: binding
Settings: compound 10 µM; n = 3; read-out: ΔTm STK38L
endpoint label: ΔTm at 10 µM (°C)
# unit: °C | format: bare number

Looking for the measured ΔTm at 10 µM of "O=C(Cc1ccc(Nc2ncc(F)c(Nc3ccc(C(=O)Nc4ccccc4Cl)cc3)n2)cc1)NCCN1CCOCC1" , can you help? 1.5

Looking for the measured ΔTm at 10 µM of "NC(=O)Cc1ccc(Nc2ncc(F)c(Nc3ccc(C(=O)Nc4ccccc4Cl)cc3)n2)cc1" , can you help? 2.5

Looking for the measured ΔTm at 10 µM of "CCN1CCN(C(=O)Cc2ccc(Nc3ncc(F)c(Nc4ccc(C(=O)Nc5ccccc5)cc4)n3)cc2)CC1" , can you help? 2.6

Looking for the measured ΔTm at 10 µM of "CCN1CCN(C(=O)Cc2ccc(Nc3ncc(F)c(Nc4ccc(C(=O)O)cc4)n3)cc2)CC1" , can you help? 0.2

----------
Target: AURKB (Homo sapiens)
Sequence (Q96GD4 whole entry): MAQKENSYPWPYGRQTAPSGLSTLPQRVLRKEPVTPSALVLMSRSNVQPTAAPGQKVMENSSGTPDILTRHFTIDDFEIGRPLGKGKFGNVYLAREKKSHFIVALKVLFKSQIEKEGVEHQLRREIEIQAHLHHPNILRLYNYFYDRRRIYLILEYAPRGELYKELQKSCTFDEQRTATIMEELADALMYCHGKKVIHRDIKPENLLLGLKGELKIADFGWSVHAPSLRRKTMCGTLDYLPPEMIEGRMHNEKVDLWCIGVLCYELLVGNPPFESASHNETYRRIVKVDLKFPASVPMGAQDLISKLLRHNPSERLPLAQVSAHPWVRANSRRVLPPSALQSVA
Experiment: Thermal shift assay
Assay type: binding
Set-up: full-length wild-type AURKA, AURKB, and AURKC were obtained as plasmids cloned in frame with a C-terminal NanoLuc-fusion
Details: compound 10 µM; n = 3; read-out: ΔTm AURKB
endpoint label: ΔTm at 10 µM (°C)
# unit: °C | format: bare number

{"molecule": "O=C(Cc1ccc(Nc2ncc(F)c(Nc3ccc(C(=O)Nc4ccccc4Cl)cc3)n2)cc1)NCCN1CCOCC1 [ERJ2-04]", "value units": "°C", "numeric readout": -0.8}

Looking for the measured ΔTm at 10 µM of CCN1CCN(C(=O)Cc2ccc(Nc3ncc(F)c(Nc4ccc(C(=O)Nc5ccccc5)cc4)n3)cc2)CC1 [ERJ2-11] , can you help? -0.2

Looking for the measured ΔTm at 10 µM of NC(=O)Cc1ccc(Nc2ncc(F)c(Nc3ccc(C(=O)Nc4ccccc4Cl)cc3)n2)cc1 [ERJ2-06] , can you help? 0.5

Looking for the measured ΔTm at 10 µM of CCN1CCN(C(=O)Cc2ccc(Nc3ncc(F)c(Nc4ccc(C(=O)O)cc4)n3)cc2)CC1 [ERJ2-12] , can you help? -2.5

----------
Each entry below carries its reported ΔTm at 10 µM.
Target: CAMK1G (Homo sapiens)
Construct: purchased in-house thermal shift (DSF) kinase panel (SGC Frankfurt); Promega NanoBRET for AURKA/B/C
Sequence (Q96NX5 23-277): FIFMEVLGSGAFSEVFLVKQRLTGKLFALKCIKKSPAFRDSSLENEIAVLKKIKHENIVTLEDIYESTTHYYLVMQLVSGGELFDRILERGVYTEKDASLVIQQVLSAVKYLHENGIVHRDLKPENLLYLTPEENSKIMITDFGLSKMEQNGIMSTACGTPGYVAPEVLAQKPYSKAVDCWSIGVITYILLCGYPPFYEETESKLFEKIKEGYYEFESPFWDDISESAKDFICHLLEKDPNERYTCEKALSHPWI
Assay: Thermal shift assay
Assay type: binding
Conditions: compound 10 µM; n = 3; read-out: ΔTm CAMK1G
# unit: °C | format: bare number

Known ΔTm at 10 µM results, listed for orientation:
{"smiles structure": "O=C(Cc1ccc(Nc2ncc(F)c(Nc3ccc(C(=O)Nc4ccccc4Cl)cc3)n2)cc1)NCCN1CCOCC1", "experimental target": "CAMK1G (Homo sapiens)", "value units": "°C", "numeric readout": 0.4}
{"smiles structure": "CCN1CCN(C(=O)Cc2ccc(Nc3ncc(F)c(Nc4ccc(C(=O)O)cc4)n3)cc2)CC1", "experimental target": "CAMK1G (Homo sapiens)", "value units": "°C", "numeric readout": 0.2}
{"smiles structure": "NC(=O)Cc1ccc(Nc2ncc(F)c(Nc3ccc(C(=O)Nc4ccccc4Cl)cc3)n2)cc1", "experimental target": "CAMK1G (Homo sapiens)", "value units": "°C", "numeric readout": 1.2}

Pending molecule:
Looking for the measured ΔTm at 10 µM of "CCN1CCN(C(=O)Cc2ccc(Nc3ncc(F)c(Nc4ccc(C(=O)Nc5ccccc5)cc4)n3)cc2)CC1" , can you help? 1.2

----------
Each entry below carries its reported ΔTm at 10 µM.
Molecular target: MAPK8 (Homo sapiens, UniProt P45983)
Construct: purchased in-house thermal shift (DSF) kinase panel (SGC Frankfurt); Promega NanoBRET for AURKA/B/C
Sequence (P45983 1-364): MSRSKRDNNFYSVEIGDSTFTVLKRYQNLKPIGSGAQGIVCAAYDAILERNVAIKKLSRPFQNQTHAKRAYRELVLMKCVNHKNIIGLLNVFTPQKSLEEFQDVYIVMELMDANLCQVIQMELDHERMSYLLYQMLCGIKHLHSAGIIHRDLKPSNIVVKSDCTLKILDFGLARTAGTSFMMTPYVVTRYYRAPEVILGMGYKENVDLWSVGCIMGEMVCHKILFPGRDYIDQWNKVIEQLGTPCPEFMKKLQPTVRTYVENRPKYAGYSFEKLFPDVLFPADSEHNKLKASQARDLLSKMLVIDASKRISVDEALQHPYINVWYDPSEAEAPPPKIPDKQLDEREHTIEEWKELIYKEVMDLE
Test: Thermal shift assay
Type: binding
Settings: compound 10 µM; n = 3; read-out: ΔTm MAPK8
Respond with the figure and its unit, in that order.

Known ΔTm at 10 µM results, listed for orientation:
{"smiles structure": "CCN1CCN(C(=O)Cc2ccc(Nc3ncc(F)c(Nc4ccc(C(=O)O)cc4)n3)cc2)CC1", "experimental target": "MAPK8 (Homo sapiens, UniProt P45983)", "ΔTm at 10 µM": "4.2 °C"}
{"smiles structure": "O=C(Cc1ccc(Nc2ncc(F)c(Nc3ccc(C(=O)Nc4ccccc4Cl)cc3)n2)cc1)NCCN1CCOCC1", "experimental target": "MAPK8 (Homo sapiens, UniProt P45983)", "ΔTm at 10 µM": "3.2 °C"}
{"smiles structure": "NC(=O)Cc1ccc(Nc2ncc(F)c(Nc3ccc(C(=O)Nc4ccccc4Cl)cc3)n2)cc1", "experimental target": "MAPK8 (Homo sapiens, UniProt P45983)", "ΔTm at 10 µM": "3.7 °C"}

Looking for the measured ΔTm at 10 µM of "CCN1CCN(C(=O)Cc2ccc(Nc3ncc(F)c(Nc4ccc(C(=O)Nc5ccccc5)cc4)n3)cc2)CC1" , can you help? 3.8 °C

----------
Test system: MCD4 cells
Test: MTS assay (cell viability)
Type: cell-based, mouse
Settings: 30 µM, 10 µM or 1 µM, 1 h; compared to untreated cells
endpoint label: viability of MCD4 cells

Known viability of MCD4 cells results, listed for orientation:
{"compound": "O=C(Cc1ccc(Nc2ncc(F)c(Nc3ccc(C(=O)Nc4ccccc4Cl)cc3)n2)cc1)NCCN1CCOCC1 [ERJ2-04]", "viability of MCD4 cells": "reduced by 10 or 30 µM"}
{"compound": "O=C(Cc1ccc(Nc2ncc(F)c(Nc3ccc(C(=O)Nc4ccccc4Cl)cc3)n2)cc1)NCCO [ERJ2-08]", "viability of MCD4 cells": "partly increased"}
{"compound": "COCCNC(=O)Cc1ccc(Nc2ncc(F)c(Nc3ccc(C(=O)Nc4ccccc4Cl)cc3)n2)cc1 [ERJ2-05]", "viability of MCD4 cells": "partly increased"}
{"compound": "O=C(Nc1ccccc1Cl)c1ccc(Nc2nc(Nc3ccc(CC(=O)N4CCOCC4)cc3)ncc2F)cc1 [ERJ2-03]", "viability of MCD4 cells": "reduced by 10 or 30 µM"}

Pending compound:
Any idea what viability of MCD4 cells came out for CCN1CCN(C(=O)Cc2ccc(Nc3ncc(F)c(Nc4ccc(C(=O)Nc5ccccc5)cc4)n3)cc2)CC1 [ERJ2-11] on MCD4 cells? reduced by 10 or 30 µM

----------
Biological target: STK17A (Homo sapiens, UniProt Q9UEE5)
Construct: purchased in-house thermal shift (DSF) kinase panel (SGC Frankfurt); Promega NanoBRET for AURKA/B/C
Sequence (Q9UEE5 61-321): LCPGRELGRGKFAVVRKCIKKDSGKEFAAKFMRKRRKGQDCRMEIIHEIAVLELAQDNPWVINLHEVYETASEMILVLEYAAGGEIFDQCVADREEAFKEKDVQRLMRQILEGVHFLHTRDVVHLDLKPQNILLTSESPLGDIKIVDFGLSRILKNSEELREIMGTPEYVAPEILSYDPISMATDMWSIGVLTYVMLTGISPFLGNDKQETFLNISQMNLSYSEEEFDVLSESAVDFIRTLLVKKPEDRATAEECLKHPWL
Assay: Thermal shift assay
Type: binding
Conditions: compound 10 µM; n = 3; read-out: ΔTm STK17A
endpoint label: ΔTm at 10 µM
Respond with the figure and its unit, in that order.

Known ΔTm at 10 µM results, listed for orientation:
{"smiles structure": "NC(=O)Cc1ccc(Nc2ncc(F)c(Nc3ccc(C(=O)Nc4ccccc4Cl)cc3)n2)cc1", "endpoint label": "ΔTm at 10 µM", "result": "2.2 °C"}
{"smiles structure": "CCN1CCN(C(=O)Cc2ccc(Nc3ncc(F)c(Nc4ccc(C(=O)Nc5ccccc5)cc4)n3)cc2)CC1", "endpoint label": "ΔTm at 10 µM", "result": "1.8 °C"}
{"smiles structure": "CCN1CCN(C(=O)Cc2ccc(Nc3ncc(F)c(Nc4ccc(C(=O)O)cc4)n3)cc2)CC1", "endpoint label": "ΔTm at 10 µM", "result": "0.4 °C"}

Any idea what ΔTm at 10 µM came out for "O=C(Cc1ccc(Nc2ncc(F)c(Nc3ccc(C(=O)Nc4ccccc4Cl)cc3)n2)cc1)NCCN1CCOCC1" on STK17A (Homo sapiens, UniProt Q9UEE5)? 1.4 °C

All values here come from paper PMC8776063.
